# System: mice
# MEASUREMENT PROTOCOL: Sleep-inducing activity: capacity to increase the sleep time induced by barbital
# Assay type: in vivo
# CONDITION SET: product i.p. 15 min after barbital 150 mg/Kg i.v., dosage efficacy 50
# Procedure: Sleep-inducing Activity in Mice Fifteen minutes after the administration of barbital (150 mg/Kg, i.v.), the mice were treated with the product of the study at an initial dose of 100 mg/Kg (i.p.).
Entries and their DE50
Your answer should be a plain number; it is taken to be in mg/kg.

Here's what some known entries look like.
MOLECULE: COc1ccnc(N2CCN(C(=O)c3cccs3)CC2)n1 [Example 4]
DE50 (mg/kg): 8.7
//
MOLECULE: COc1ccnc(N2CCN(C(=O)c3ccco3)CC2)n1 [Example 2]
DE50 (mg/kg): 14.4
//
MOLECULE: COc1ccnc(N2CCN(C(=O)c3ccsc3)CC2)n1 [Example 13]
DE50 (mg/kg): 41.3
//
MOLECULE: CCCC(C)(COC(N)=O)COC(N)=O [Meprobamate, reference compound]
DE50 (mg/kg): 84.5

Read the next record carefully.
Measured DE50 for this entry COc1ccnc(N2CCN(C(=O)C3CC3)CC2)n1 [Example 9] on mice: 28.1
